# tested system: Thrombin (Homo sapiens, UniProt P00734)
# procedure text: thrombin inhibition activity assay (D.4), specific activity
# Assay type: biochemical
# condition label: cysteine-PEGylated protein relative to same protein before PEGylation
quantity: REL TO ACTIVITY BEFORE PEG, AFTER PEG MODIFICATION

input: Determine from records and report REL TO ACTIVITY BEFORE PEG, AFTER PEG MODIFICATION for E125C (conjugate, UniProt P07093 20-398, looked up, variant E125C, PEG) Glia-derived nexin: SHFNPLSLEELGSNTGIQVFNQIVKSRPHDNIVISPHGIASVLGMLQLGADGRTKKQLAMVMRYGVNGVGKILKKINKAIVSKKNKDIVTVANAVFVKNASEIEVPFVTRNKDVFQCEVRNVNFCDPASACDSINAWVKNETRDMIDNLLSPDLIDGVLTRLVLVNAVYFKGLWKSRFQPENTKKRTFVAADGKSYQVPMLAQLSVFRCGSTSAPNDLWYNFIELPYHGESISMLIALPTESSTPLSAIIPHISTKTIDSWMSIMVPKRVQVILPKFTAVAQTDLKEPLKVLGITDMFDSSKANFAKITTGSENLHVSHILQKAKIEVSEDGTKASAATTAILIARSSPPWFIVDRPFLFFIRHNPTGAVLFMGQINKP
output: 1.57
